test system: RAW-Dual (murine macrophage reporter line); test: IRF reporter (Lucia luciferase) activity fold change vs agonist alone; higher = enhanced IRF activity; conditions: modulator concentration 10 µM; agonist: 3'3'-cGAMP 10 ug/mL
Everything with IRF reporter lower than 1 is false (0); everything else, including exactly 1, is true (1).

Here are 3 compounds together with their reported answers.
compound	category
COc1ccccc1Cn1c(SC)nc2c(-c3ccccc3)c[nH]c2c1=O	false (0)
Cc1cccc(C(=O)N2N=C(c3ccccc3)CC2(O)C(F)(F)F)c1 (stereo not given)	true (1)
COc1ccc(C(C)(C#N)CC#N)cc1 (stereo not given)	true (1)

Reported IRF reporter reaches at least 1 for CC1COc2c(N3CCN(C)CC3)c(F)cc3c(=O)c(C(=O)O)cn1c23 (stereo not given) ?
true (1)

====

test system: RAW-Dual (murine macrophage reporter line); experiment: NF-kB reporter (SEAP) activity fold change vs agonist alone; higher = enhanced NF-kB activity; details: modulator concentration 10 µM; agonist: CpG ODN 1826 0.5 ug/mL
Would you mind telling me the reported NF-kB reporter of each entry?
Answers are plain numbers.

# annotated cases, reported NF-kB reporter shown
compound	NF-kB reporter
COc1ccc2[nH]c(S(=O)Cc3ncc(C)c(OC)c3C)nc2n1 (stereo not given) [Prestw-1351]	0.872
CO[C@@]1(NC(=O)CSCC#N)C(=O)N2C(C(=O)[O-])=C(CSc3nnnn3C)CS[C@@H]21 [Prestw-700]	0.993

Quick batch: NF-kB reporter for everything below.
1. COCCOC(=O)C1=C(C)NC(C)=C(C(=O)OCC=Cc2ccccc2)C1c1cccc([N+](=O)[O-])c1 (stereo not given)
2. CNCC[C@H](Oc1cccc2ccccc12)c1cccs1.Cl
3. CCN(CC)CCOC(=O)C(c1ccccc1)c1ccccc1.Cl

0.586
0.377
0.913

====

system: RAW-Dual (murine macrophage reporter line); assay: IRF reporter (Lucia luciferase) activity fold change vs agonist alone; higher = enhanced IRF activity; settings: modulator concentration 10 µM; agonist: MPLA […]
Would you mind telling me the reported IRF reporter of each entry?
Numbers only.

# annotated cases, reported IRF reporter shown
molecule	reported_metric	numeric_result
CC(C)NC(=N)NC(=N)Nc1ccc(Cl)cc1 [Prestw-999]	IRF reporter	0.954
Cc1c(OCC(=O)OC(C)C)ccc2c3c(c(=O)oc12)CCCC3	IRF reporter	1.71
COc1ccc(CNCc2ccc3ccccc3c2)cc1OC	IRF reporter	0.961

Quick batch: IRF reporter for everything below.
1. CCC1(CC)Cc2ccccc2C(CC(=O)N2CCOCC2)=N1.O=S(=O)(O)O
2. COC(=O)Nn1cnnc1
3. COC(=O)C1=C(C)N(Cc2ccccc2)C(=O)C1=Cc1ccc(C)cc1

1: 1.16; 2: 1.39; 3: 0.948

====

test system: RAW-Dual (murine macrophage reporter line); experiment: IRF reporter (Lucia luciferase) activity fold change vs agonist alone; higher = enhanced IRF activity; conditions: modulator concentration 10 µM; agonist: 3'3'-cGAMP 10 ug/mL
reported_metric: IRF reporter
Numbers only.

compound	numeric_result
Cc1cc(=O)n(CC(=O)N2CCC(c3ccccc3F)S(=O)(=O)CC2)cn1 (configuration not stated)	1
O=C(NC(=S)Nc1ccccc1C(F)(F)F)c1cccc(I)c1	0.989
C[C@]1(O)C[C@@H](c2nc(-c3ccc4ccc(-c5ccccc5)nc4c3)c3c(N)nccn32)C1	0.593
CCN1C(=O)C(=Cc2cc(Br)ccc2OCCOc2ccccc2Cl)SC1=S	0.982
COC(=O)C1=C(C)NC(C)=C(C(=O)OCCN(C)Cc2ccccc2)C1c1cccc([N+](=O)[O-])c1.Cl (configuration not stated)	1.1

Quick batch: IRF reporter for everything below.
1. CC(C)Sc1ccc(CC(=O)Nc2cnoc2)cc1
2. CC(C)Nc1cc(-c2c[nH]c(C(=O)N[C@H](CO)c3cccc(Cl)c3)c2)c(Cl)cn1
3. CC(C)(Oc1ccc(CCNC(=O)c2ccc(-c3ccc(Cl)cc3)o2)cc1)C(=O)O
4. OCCN1CCN(CCCN2c3ccccc3Sc3ccc(Cl)cc32)CC1

1: 0.848; 2: 0.677; 3: 0.942; 4: 3.18

Quick batch: IRF reporter for everything below.
1. Fc1ccc2ccccc2c1
2. Cc1nnc(C(=O)NC(C)(C)c2nc(C(=O)NCc3ccc(F)cc3)c(O)c(=O)n2C)o1
3. O=C(C=Cc1cccnc1)c1cc2ccc1CCc1ccc(cc1)CC2
4. COc1cc2nc(N(C)CCCNC(=O)C3CCCO3)nc(N)c2cc1OC.Cl (configuration not stated)
5. CC(C)CCn1c(COc2ccccc2)nc2ccccc21
6. CC1(C)C(=O)C2CC3(O)C4=CC(=O)OC(c5ccoc5)C4(C)CCC3C(C)(C2=O)C1CC(=O)O (configuration not stated)

1. 1.03
2. 0.878
3. 0.639
4. 0.382
5. 0.914
6. 0.997

Quick batch: IRF reporter for everything below.
1. CSc1nc2cc(Oc3cccc(Cl)c3Cl)c(Cl)cc2[nH]1
2. O=C(CCCCCCNC(=O)c1cnc(N(c2ccccc2)c2ccccc2)nc1)NO
3. O=C(CCCCC(=O)NN=Cc1cccc(O)c1)NN=Cc1cccc(O)c1
4. O=C(C1=C(O)C(=O)N(c2nccs2)C1c1ccccc1)c1cc2ccccc2o1 (configuration not stated)
5. CN1C(=N)NC(=O)C1=Cc1cc(Br)cc(Br)c1O
6. CN1CCN(CC(=O)N2c3ccccc3C(=O)Nc3cccnc32)CC1.Cl.Cl

[0.831, 0.954, 0.955, 0.664, 0.96, 0.96]

Bench note: what IRF reporter did NC(Cc1ccccc1)C(=O)O (configuration not stated) show?
0.911

Numbers sourced from the supplement of paper PMC10646978.
